Here, each record is paired with measured TL1A Binding Level (Late) data.
Biological target: T1, human TL1A extracellular domain with N-terminal HIS and FLAG tag (human, UniProt O95150 72-251)
T1 construct: the whole entry is named; also called TNFSF15
T1 sequence: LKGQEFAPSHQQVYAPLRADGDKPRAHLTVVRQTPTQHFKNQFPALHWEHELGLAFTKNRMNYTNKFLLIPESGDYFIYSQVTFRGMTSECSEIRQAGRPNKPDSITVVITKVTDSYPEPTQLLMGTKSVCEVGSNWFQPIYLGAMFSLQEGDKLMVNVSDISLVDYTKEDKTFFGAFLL
Experiment: SPR Run 9, antibody on Protein A, TL1A 5 ug/mL, timepoint 590
Field format: number, assumed RU, no unit text.

>>> readout_value("320-614 (antibody, human IgG1, name in Kabat numbering, V domains shown, full-length human IgG1, lambda) VH: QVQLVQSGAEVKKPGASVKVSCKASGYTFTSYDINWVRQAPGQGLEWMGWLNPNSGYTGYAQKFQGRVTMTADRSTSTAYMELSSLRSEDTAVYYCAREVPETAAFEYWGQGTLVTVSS VL: QSVLTQPPSVSGAPGQRVTISCTSSSSDIGAGLGVHWYQQLPGTAPKLLIEGYYNRPSGVPDRFSGSKSGTSASLTITGLLPEDEGDYYCQSYDKTLSALFGGGTKLTVLG")
111

Next item in the queue.
Q. Using the record for 320-605 (antibody, human IgG1, name in Kabat numbering, V domains shown, full-length human IgG1, lambda) VH: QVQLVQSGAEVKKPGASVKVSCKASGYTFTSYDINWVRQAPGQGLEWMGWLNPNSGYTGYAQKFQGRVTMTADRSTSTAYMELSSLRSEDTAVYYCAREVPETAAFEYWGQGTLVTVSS VL: QSVLTQPPSVSGAPGQRVTISCTSSSSDIGAALGVHWYQQLPGTAPKLLIEGYYNRPSGVPDRFSGSKSGTSASLTITGLLPEDEGDYYCQSFDGTLSALFGGGTKLTVLG , report its TL1A Binding Level (Late).
A. 120
